- test_protocol: Lethal dose against HeLa human cervix cancer cell line
- Type: toxicity, cell-based
- settings: HeLa cells, read-out: LD50 (the source's name)
test_readout: CC50 (µM)

>>> obs_value("CC(C)=C1Oc2c(ccc3c2C(O)OC(C)C3)C1=O (stereo unspecified)")
47

====

- test_protocol: Lethal dose against HL-60 human peripheral blood cancer cell line
- Type: toxicity, cell-based
- settings: HL-60 cells, read-out: LD50 (the source's name)
test_readout: CC50 (µM)

>>> obs_value("CC(C)=C1Oc2c(ccc3c2C(O)OC(C)C3)C1=O (stereo unspecified)")
39
